- Measurement notes: APR_HepG2_CellLoss_24hr: Apredica 24-hour HepG2 Assay for Cell Loss (AID 2282908)
- Stated conditions: high-content imaging
The source made the active and inactive calls. How the source made its calls: active means hit-call score of the fitted dose curve at least 0.9, where 1 is the maximum; inactive means score below 0.9.
Mark one answer only. Choices: yes = active, no = inactive

Field: example entries. Status: answers known.
[
  {
    "Compound": "Cc1ccc(C(C)(C)C)c(O)c1",
    "Class name": "yes"
  },
  {
    "Compound": "CCCC[C@H]1CN(CC2CCOCC2)C(=O)OC12CCN(C1(C)CCN(C(=O)c3c(C)ncnc3C)CC1)CC2",
    "Class name": "no"
  },
  {
    "Compound": "CCCCC(CC)COC(=O)CCCCCCCC(=O)OCC(CC)CCCC (stereo not drawn)",
    "Class name": "no"
  }
]

Lab note: next compound to report on.
Qu. Record request — test call for COc1ccc(C(=O)Nc2nc3ccccc3c(NCc3ccccc3)c2C#N)cc1
Ans. yes

* * *

- Measurement notes: CCTE_Shafer_MEA_acute_firing_rate_mean: CCTE's Neural Acute Assay for Mean Firing Rate, Shafer Lab (AID 2284009);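 further: analyzed for loss of signal so actives lower firing rate relative to DMSO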
Activity calls are given as the source filed them. The calls were made as follows: active = hit-call score of the fitted dose curve at least 0.9, where 1 is the maximum; inactive = score below 0.9.
Measured endpoint: AC50

Take a look at these entries with their results.
[
  {
    "Compound": "CN(C)CCCN1c2ccccc2Sc2ccc(Cl)cc21",
    "AC50": "inactive"
  },
  {
    "Compound": "CN(C)C(=O)NC1(c2ccccc2)CCN(CCC[C@]2(c3ccc(Cl)c(Cl)c3)CCCN(C(=O)c3ccccc3)C2)CC1",
    "AC50": "inactive"
  },
  {
    "Compound": "COc1ccc(OC(F)(F)F)cc1CN[C@H]1CCCN[C@H]1c1ccccc1",
    "AC50": "1.73 µM (active)"
  },
  {
    "Compound": "CCc1cc(C2=C(C(=O)O)N(c3ccccc3C(F)(F)F)S(=O)(=O)c3ccccc32)cc2c1OCO2",
    "AC50": "inactive"
  },
  {
    "Compound": "CSc1ccc(Oc2ccc(S(N)(=O)=O)cc2CN(C)C)cc1C",
    "AC50": "inactive"
  }
]

Turning now to a further record.
Qu. If you can, please state the reported AC50 value of Cc1cc(Cc2ccc(N)c(C)c2)ccc1N .
Ans. 14.9 µM (active)

* * *

- Read-out: Phosphatase and tensin (PTEN), PTEN (gene 5728)
- Measurement notes: LTEA_HepaRG_PTEN: Life Technologies and Expression Analysis (LTEA) Assay for Phosphatase and tensin (PTEN) using HepaRG (AID 2283523)
- Stated conditions: mRNA level, 48 h; actives raise or lower the signal
Active and inactive are the calls of the source. The calls were made as follows: active = hit-call score of the fitted dose curve at least 0.9, where 1 is the maximum; inactive = score below 0.9.
// classify into active, inactive

[
  {
    "Molecule": "OCC(CO)n1cnc(-c2ccc(F)cc2)c1-c1ccnc(Oc2ccccc2)n1",
    "Class name": "inactive"
  }
]

Qu. Test call for this molecule, please: NC(=Nc1ccccc1)Nc1ccccc1
Ans. inactive

Qu. Returns: the outcome recorded for CN(C)C(=O)NC1(c2ccccc2)CCN(CCC[C@]2(c3ccc(Cl)c(Cl)c3)CCCN(C(=O)c3ccccc3)C2)CC1 in this assay.
Ans. inactive

Qu. Hey, what did the test say about O=C(N[C@@H](c1ccccc1)[C@@H]1CCCCN1)c1cccc(C(F)(F)F)c1Cl ?
Ans. active

* * *

- Read-out: growth arrest and DNA damage 45 (GADD45G), GADD45G (gene 10912)
- Measurement notes: LTEA_HepaRG_GADD45G: Life Technologies and Expression Analysis (LTEA) Assay for growth arrest and DNA damage 45 (GADD45G) using HepaRG (AID 2283499)
- Stated conditions: mRNA level, 48 h; actives raise or lower the signal
Activity calls are given as the source filed them. Rule for the calls: active = hit-call score of the fitted dose curve at least 0.9, where 1 is the maximum; inactive = score below 0.9.
Choose the fitting class; nothing outside active, inactive is accepted.

Study these solved cases before continuing.
[
  {
    "Compound": "NCCOCCOCCN",
    "Class name": "inactive"
  },
  {
    "Compound": "O=C1c2c(O)cccc2Cc2cccc(O)c21",
    "Class name": "inactive"
  },
  {
    "Compound": "CCCCC(CC)COP(=O)(OCC(CC)CCCC)OCC(CC)CCCC (stereo unspecified)",
    "Class name": "inactive"
  },
  {
    "Compound": "COc1ccc(OC(F)(F)F)cc1CN[C@H]1CCCN[C@H]1c1ccccc1",
    "Class name": "inactive"
  }
]

Qu. What call does the record list for CN(C)C(=O)NC1(c2ccccc2)CCN(CCC[C@]2(c3ccc(Cl)c(Cl)c3)CCCN(C(=O)c3ccccc3)C2)CC1 ?
Ans. active

Qu. Please indicate how the test categorized Cc1cc(SC2=C(O)C[C@@](CCc3ccc(N)cc3)(C(C)C)OC2=O)c(C(C)(C)C)cc1CO .
Ans. inactive

* * *

- Read-out: Glutamate-cysteine ligase catalytic (GCLC), GCLC (gene 2729)
- Measurement notes: LTEA_HepaRG_GCLC: Life Technologies and Expression Analysis (LTEA) Assay for Glutamate-cysteine ligase catalytic (GCLC) using HepaRG (AID 2283498)
- Stated conditions: mRNA level, 48 h; actives raise or lower the signal
Activity calls are given as the source filed them. Rule for the calls: active = hit-call score of the fitted dose curve at least 0.9, where 1 is the maximum; inactive = score below 0.9.
Choose one outcome from this list and give only that: yes (1) = active, no (0) = inactive

Worked examples, 8 compounds total:
[
  {
    "Compound": "NC=O",
    "Class name": "no (0)"
  },
  {
    "Compound": "O=C(O)CC(O)(CC(=O)O)C(=O)O",
    "Class name": "no (0)"
  },
  {
    "Compound": "CN(C)CCCN1c2ccccc2Sc2ccc(Cl)cc21",
    "Class name": "no (0)"
  },
  {
    "Compound": "O=NO",
    "Class name": "no (0)"
  },
  {
    "Compound": "CCCC(=O)O",
    "Class name": "no (0)"
  },
  {
    "Compound": "C/C=C/c1ccc(OC)cc1",
    "Class name": "no (0)"
  },
  {
    "Compound": "Oc1ccccc1O",
    "Class name": "no (0)"
  },
  {
    "Compound": "Cc1occc(=O)c1O",
    "Class name": "no (0)"
  }
]

Qu. Returns: the outcome recorded for CN(C)C(=O)NC1(c2ccccc2)CCN(CCC[C@]2(c3ccc(Cl)c(Cl)c3)CCCN(C(=O)c3ccccc3)C2)CC1 in this assay.
Ans. yes (1)

Qu. Hi, sorry to bother you, what did the test record for CCCCCCCCCCCCCCOS(=O)(=O)O ?
Ans. no (0)

Qu. I would be grateful if you could indicate the recorded call for CC(=O)CC(c1ccccc1)c1c(O)c2ccccc2oc1=O (centres undefined) .
Ans. no (0)

Qu. Kindly provide the recorded test outcome for the following compound: CCCC[C@H]1CN(CC2CCOCC2)C(=O)OC12CCN(C1(C)CCN(C(=O)c3c(C)ncnc3C)CC1)CC2
Ans. no (0)

Qu. Assay result, entry O=C(N[C@@H](c1ccccc1)[C@@H]1CCCCN1)c1cccc(C(F)(F)F)c1Cl — outcome?
Ans. no (0)

Qu. I'd appreciate the recorded outcome for C#CC(O)C(CC)CCCC (centres undefined) from this test.
Ans. no (0)

* * *

- Read-out: MicroRNA 122 (MIR122), gene 406906
- Measurement notes: LTEA_HepaRG_MIR122: Life Technologies and Expression Analysis (LTEA) Assay for MicroRNA 122 (MIR122) using HepaRG (AID 2283516); further: the transcript read is the microRNA miR-122
- Stated conditions: mRNA level, 48 h; actives raise or lower the signal
Calls of active or inactive are those of the source. The calls were made as follows: active = hit-call score of the fitted dose curve at least 0.9, where 1 is the maximum; inactive = score below 0.9.
Entry note: the call must match one of active, inactive

Previously resolved entries follow.
[
  {
    "Compound": "CCCCC(CC)CO (configuration not stated)",
    "Class name": "inactive"
  },
  {
    "Compound": "Cc1cc(SC2=C(O)C[C@@](CCc3ccc(N)cc3)(C(C)C)OC2=O)c(C(C)(C)C)cc1CO",
    "Class name": "inactive"
  },
  {
    "Compound": "C=CCCCCCCCCCCCC",
    "Class name": "inactive"
  }
]

Qu. Name the outcome recorded for O=C1NC(=O)C(c2ccccc2)(c2ccccc2)N1 in the assay.
Ans. inactive

Qu. Outcome logged for CCCC(=O)O in this assay:
Ans. inactive

Qu. # fetch the recorded call for C#CC(O)C(CC)CCCC (configuration not stated) here
Ans. inactive

Qu. // outcome(item) with item = CC(=O)OCC(COC(C)=O)OC(C)=O
Ans. inactive

* * *

- Measurement notes: ATG_CMV_CIS: Attagene CIS-FACTORIAL HepG2 Assay for human CMV (Internal Marker) (AID 2282928);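 further: endpoint acts as a background internal control marker rather than a target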
- Stated conditions: HepG2 CMV promoter reporter, transcription factor profiling; actives raise or lower the signal
Activity calls are given as the source filed them. Rule for the calls: active = hit-call score of the fitted dose curve at least 0.9, where 1 is the maximum; inactive = score below 0.9.
Write down one outcome, taken from Y (active), N (inactive)

[
  {
    "Compound": "O=C(NS(=O)(=O)/C=C/c1cccs1)c1ccc(F)cc1Br",
    "Class name": "N"
  },
  {
    "Compound": "OCC(CO)n1cnc(-c2ccc(F)cc2)c1-c1ccnc(Oc2ccccc2)n1",
    "Class name": "N"
  },
  {
    "Compound": "O=C1CCCCC1",
    "Class name": "N"
  }
]

Qu. Recorded call for CC(C)(C)c1ccccc1 ?
Ans. N

Every entry's value here was drawn from PubChem BioAssay (EPA / NIEHS).
